TEST TARGET: UniProtKB O15379
Sequence (O15379 whole entry): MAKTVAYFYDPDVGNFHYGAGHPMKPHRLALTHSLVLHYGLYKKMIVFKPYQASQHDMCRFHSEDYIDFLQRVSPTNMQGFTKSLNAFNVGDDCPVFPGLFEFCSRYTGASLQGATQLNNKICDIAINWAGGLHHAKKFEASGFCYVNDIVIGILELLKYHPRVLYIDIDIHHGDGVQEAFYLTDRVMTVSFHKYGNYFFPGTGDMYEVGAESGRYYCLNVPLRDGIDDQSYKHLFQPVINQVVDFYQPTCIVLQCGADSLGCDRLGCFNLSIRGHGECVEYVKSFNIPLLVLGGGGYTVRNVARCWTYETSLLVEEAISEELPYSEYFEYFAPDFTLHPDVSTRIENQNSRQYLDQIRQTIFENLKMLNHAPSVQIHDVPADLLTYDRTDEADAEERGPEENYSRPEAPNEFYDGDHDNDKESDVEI
EXPERIMENT NOTES: Inhibition of human HDAC3 using human HeLa cell nuclear extract at 1 uM measured after 60 mins by fluorescence assay
Assay type: subcellular, Nucleus
PROPERTY MEASURED: pIC50
Just so you know, pIC50 here is -log10 of the concentration in molar units; reply with that number alone.

Please report the recorded pIC50 for `Cc1noc(C)c1-c1ccc2c(c1)c(Cc1ccc(F)cc1)cn2CCCCCC(=O)NO` .
7.41

Please report the recorded pIC50 for `Cc1cccc(Cc2cn(CCCCCC(=O)NO)c3ccc(-c4c(C)noc4C)cc23)c1` .
7.21

Please report the recorded pIC50 for `Cc1noc(C)c1-c1ccc2c(c1)c(CCc1ccccc1)cn2CCCCCCC(=O)NO` .
7.55

Please report the recorded pIC50 for `Cc1ccccc1CCc1cn(CCCCCC(=O)NO)c2ccc(-c3c(C)noc3C)cc12` .
7.21

Each recorded value in this set is attributed to ChEMBL document CHEMBL5233233.
